Each entry below carries its reported log10(solubility at 24 h).
# assay-explanation: Solubility in gastric juice or intestinal juice model fluid (precipitation method using DMSO)
# Format: physicochemical
# study-conditions: pH 1.2, simulated gastric fluid, kinetic from dmso stock, 1st fluid for Disintegration Test of Japanese Pharmacopoeia (pH: 1.2), room temperature, read-out: Solubility (μg/mL) 1st fluid
Heads up, the numbers here are log10 of solubility at 24 h in µg/mL units.

// known answers, use as guide
Return reported log10(solubility at 24 h); argument: COc1cc(OCc2ccc(C(F)(F)F)cn2)ccc1-c1[nH]c(C2CCCC(F)(F)C2)nc1Br (centres unmarked)
2.00

Please answer likewise for COc1cc(OCc2ccc(C(F)(F)F)cn2)ccc1-c1c(Cl)nc(-c2ccc(Cl)nc2)n1C
1.17

Please answer likewise for COc1cc(OCc2ccc(C(F)(F)F)cn2)ccc1-c1nc(-c2ccc(F)cn2)[nH]c1C
1.92

More entries:
Return reported log10(solubility at 24 h); argument: COc1cc(-c2[nH]c(C3CC(F)(F)C3)nc2Br)ccc1OCc1ccc(C(F)(F)F)cn1
1.97

Please answer likewise for CCOC(C)n1c(-c2ccc(F)nc2)nc(-c2ccc(OCc3ccc(C(F)(F)F)nc3)cc2OC)c1I (centres unmarked)
0.81

Please answer likewise for COc1cc(OCc2ncc(C(F)(F)F)cc2F)ccc1-c1cnc(C(C)(C)C)[nH]1
1.90

* * *

# assay-explanation: Solubility in gastric juice or intestinal juice model fluid (precipitation method using DMSO)
# Format: physicochemical
# study-conditions: pH 6.8, kinetic from dmso stock, 2nd fluid for Disintegration Test of Japanese Pharmacopoeia (pH: 6.8), room temperature, read-out: Solubility (μg/mL) 2nd fluid
attribute-measured: log10 of solubility at 24 h (log10 of the value in µg/mL)
Heads up, the numbers here are log10 of solubility at 24 h in µg/mL units.

Return reported log10 of solubility at 24 h; argument: COc1cc(OCc2noc(C3CC3)n2)ccc1-c1cnc(-c2ccc(F)nc2)[nH]1
0.89

More entries:
Return reported log10 of solubility at 24 h; argument: COc1cc(-c2cnc(C3CC(F)(F)C3)[nH]2)ccc1OCc1ccc(C(F)(F)F)cn1
0.73

Please answer likewise for COc1cc(-c2c[nH]c(-c3ccc(C(F)(F)F)nc3)n2)ccc1OCc1ccc(C(F)(F)F)cn1
0.34

Please answer likewise for COc1cc(OCc2ncc(C(F)(F)F)cc2F)ccc1-c1cnc(C2CC(F)(F)C2)[nH]1
1.03

* * *

Each entry below carries its reported melting point.

Return reported melting point; argument: COc1cc(OCc2ncc(Cl)cc2Br)ccc1-c1cnc(-c2ccc(F)nc2)[nH]1 [Example 134]
176 to 180 °C

Please answer likewise for COc1cc(OCc2ccc(F)cc2F)ccc1-c1[nH]c(-c2ccc(F)nc2)nc1Br [Example 258]
164 to 166 °C

Please answer likewise for COc1cc(OCc2ncc(C(F)(F)F)cc2F)ccc1-c1cnc(CCC(F)(F)F)[nH]1 [Example 390]
76 to 91 °C

Please answer likewise for Oc1ccc(-c2cnc(-c3ccc(F)nc3)[nH]2)c(Cl)c1 [Example 359]
223 to 225 °C

Please answer likewise for Oc1ccc(-c2cnc(-c3ccc(F)nc3)[nH]2)cc1 [Example 343]
> 270 °C

* * *

# assay-explanation: Solubility in gastric juice or intestinal juice model fluid (precipitation method using DMSO)
# Assay type: physicochemical
# study-conditions: pH 6.8, kinetic from dmso stock, 2nd fluid for Disintegration Test of Japanese Pharmacopoeia (pH: 6.8), room temperature, read-out: Solubility (μg/mL) 2nd fluid
Each entry below carries its reported solubility at 24 h.
The answer is to be given in µg/mL; state only the numeric part.

// known answers, use as guide
Return reported solubility at 24 h; argument: COc1cc(OCc2coc(C)n2)ccc1-c1cnc(C2CCC(F)(F)CC2)[nH]1
74

Please answer likewise for COc1cc(-c2[nH]c(C3CC(F)(F)C3)nc2Br)ccc1OCc1ccc(C(F)(F)F)cn1
2

More entries:
Return reported solubility at 24 h; argument: COc1cc(-c2cnc(-c3ccc(F)nc3)[nH]2)ccc1OCc1ncc(C(F)(F)F)cc1F
0.8
